Molecular target: Neutrophil cytosol factor 1 (Homo sapiens) (UniProt P14598)
Sequence (P14598 whole entry, looked up): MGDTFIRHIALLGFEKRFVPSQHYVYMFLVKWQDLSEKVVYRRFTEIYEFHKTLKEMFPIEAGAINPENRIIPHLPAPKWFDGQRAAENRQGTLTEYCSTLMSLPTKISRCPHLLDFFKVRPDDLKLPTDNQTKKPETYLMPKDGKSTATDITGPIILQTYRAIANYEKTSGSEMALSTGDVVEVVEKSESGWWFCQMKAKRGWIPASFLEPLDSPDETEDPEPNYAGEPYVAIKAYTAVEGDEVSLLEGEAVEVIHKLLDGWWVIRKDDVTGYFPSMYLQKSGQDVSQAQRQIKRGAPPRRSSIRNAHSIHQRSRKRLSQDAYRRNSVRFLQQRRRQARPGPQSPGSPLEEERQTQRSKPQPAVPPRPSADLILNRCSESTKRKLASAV
Assay: blockers of p47phox binding to p22phox – biochemical, uHTS, NADPH oxidase regulatory subunit, primary screen (AID 1274);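 note: 0% = p47phox with labelled peptide and 100% = labelled peptide alone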
Settings: p47phox/p22phox peptide binding, fluorescence polarization, 2 h; at 24.7 µM; stronger effect = higher value
Out of some 220,000 compounds screened, about 1,100 (0.5%) were called active. This is one part of a sample in which actives are shown more often than they occur.
property: inhibition (%)
Respond with the bare value in %.

Examples with their reported inhibition follow.
[[record]]
molecule = "Nc1nnn(CC(=O)N/N=C/c2ccc(O)cc2)n1"
observed = -6.45

[[record]]
molecule = "O=[N+]([O-])c1cccc(-c2nnc3c4ccccc4c4ccccc4n23)c1"
observed = -1.55

[[record]]
molecule = "Cc1nc2c(-c3ccc(F)cc3)c(C)nn2c(C)c1CCC(=O)N1CCN(c2ccccn2)CC1"
observed = -1.7

[[record]]
molecule = "CCCNC(=S)N1CCCC(c2nc3ccccc3[nH]2)C1 (stereo not drawn)"
observed = -3.87

[[record]]
molecule = "NC(N)=N/N=C/c1ccc(Cl)c([N+](=O)[O-])c1"
observed = 3.52


// moving on: another record for inhibition
Provide value of inhibition for this record tested with Neutrophil cytosol factor 1 (Homo sapiens) (UniProt P14598): Cc1nc2nc(C)c(CCC(=O)N3CCN(c4ccccc4)CC3)c(C)n2n1
37.8

* * *

Recorded inhibition values for a group of compounds are listed next.
Target: Neutrophil cytosol factor 1 (Homo sapiens)
Test: blockers of p47phox binding to p22phox – biochemical, uHTS, NADPH oxidase regulatory subunit, primary screen (AID 1274);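 note: 0% = p47phox with labelled peptide and 100% = labelled peptide alone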
Settings: p47phox/p22phox peptide binding, fluorescence polarization, 2 h; at 24.7 µM; stronger effect = higher value
Screen size: about 220,000 compounds; about 1,100 (0.5%) were called active. Shown is part of a subset that was picked to be rich in actives.
Respond with the bare value in %.

Examples with their reported inhibition follow.
[[record]]
compound = "O=C(O)CCC(=O)Nc1ccc(N2CCOCC2)cc1"
observed = -1.84

[[record]]
compound = "Cc1cc(C)c2nc(SCCC#N)nc(C)c2c1"
observed = 1.52

[[record]]
compound = "CCc1ccc(C2C(C#N)=C(N)N(N(C)C)C3=C2C(=O)CCC3)s1 (stereo unspecified)"
observed = -16.9


Entry under review: N#CC1=C(N)N(c2ccccc2)C2=C(C(=O)CCC2)C1c1ccccc1 (stereo unspecified) . Reported inhibition?
-23.4

Entry under review: O=C(Cc1cccs1)Nc1nnc(SCc2ccc(F)cc2)s1 . Reported inhibition?
-11.1

Entry under review: Cn1cnnc1SCC(=O)Nc1ccc(N2CCOCC2)cc1 . Reported inhibition?
50

Entry under review: CC1(OC(=O)CCc2ccccc2)C(=O)C=C2C=C(c3ccc(C#N)cc3)N(CCc3ccccn3)C=C2C1=O (stereo unspecified) . Reported inhibition?
32.3

Entry under review: COc1cccc(-n2c(SCC(=O)c3c[nH]c4ccccc34)nc3ccccc3c2=O)c1 . Reported inhibition?
-14.5

Entry under review: C[C@@H]1CC[C@]2(O[C@@H](CCO)C[C@H](O)[C@H]2O)O1 . Reported inhibition?
5.45

Entry under review: CC(=O)Nc1nc(C)c(-c2csc(Nc3ccc(S(N)(=O)=O)cc3)n2)s1 . Reported inhibition?
-21.6

Entry under review: Cc1cc(C)n(Cc2cnc(N3CCOCC3)s2)n1 . Reported inhibition?
-9.55
